methodDescription: Metabolic stability in mouse liver microsomes assessed as compound remaining at 0.5 uM after 10 mins
Type: ADME, Microsome
appliedConditions: read-out: Stability
Can you tell me remaining at 10 min, 0.5 µM for the items I'm about to list?
Give just the numeric value; % need not be written.

Consider the molecule shown here: Cc1ccncc1NC(=O)c1ccnc(NC(=O)C2CC2)c1 What is its recorded remaining at 10 min, 0.5 µM?
82

Consider the molecule shown here: O=C(Nc1cnccc1N1CCC(F)(F)CC1)c1ccnc(NC(=O)C2CC2)c1 What is its recorded remaining at 10 min, 0.5 µM?
0.2

Consider the molecule shown here: CC(C)c1ccncc1NC(=O)c1ccnc(NC(=O)C2CC2)c1 What is its recorded remaining at 10 min, 0.5 µM?
14

Consider the molecule shown here: CC1(C)COCCN1c1ccncc1NC(=O)c1ccnc(NC(=O)C2CC2)c1 What is its recorded remaining at 10 min, 0.5 µM?
0.4

Consider the molecule shown here: CC(O)c1ccncc1NC(=O)c1ccnc(NC(=O)C2CC2)c1 (configuration not stated) What is its recorded remaining at 10 min, 0.5 µM?
77

Consider the molecule shown here: C[C@H]1CN(c2ccncc2NC(=O)c2ccnc(NC(=O)C3CC3)c2)CCO1 What is its recorded remaining at 10 min, 0.5 µM?
1

Consider the molecule shown here: O=C(Nc1cnccc1N1CCOCC1)c1ccnc(NC(=O)C2CC2)c1 What is its recorded remaining at 10 min, 0.5 µM?
2

Consider the molecule shown here: O=C(Nc1cnccc1C1CCC1)c1ccnc(NC(=O)C2CC2)c1 What is its recorded remaining at 10 min, 0.5 µM?
1

Consider the molecule shown here: O=C(Nc1cnccc1C(F)(F)F)c1ccnc(NC(=O)C2CC2)c1 What is its recorded remaining at 10 min, 0.5 µM?
86

Consider the molecule shown here: C[C@@H]1COCCN1c1ccncc1NC(=O)c1ccnc(NC(=O)C2CC2)c1 What is its recorded remaining at 10 min, 0.5 µM?
0.2

Consider the molecule shown here: O=C(Nc1cncc(-c2ccccc2F)c1)c1ccnc(NC(=O)C2CC2)c1 What is its recorded remaining at 10 min, 0.5 µM?
90

Consider the molecule shown here: C=C(C)c1ccncc1NC(=O)c1ccnc(NC(=O)C2CC2)c1 What is its recorded remaining at 10 min, 0.5 µM?
3
